System: Medicago truncatula hydroperoxide lyase CYP74C3 (HPLF), recombinant, wild type, N-terminal histidine-tagged
test_parameters: Reactivated with 5 mM Emulphogene
Catalogue of molecules with associated kcat/Km

# chemical_string, kcat/Km
records = [
    ("CC/C=C\\C/C=C\\C=C\\[C@H](CCCCCCCC(=O)O)OO", "0.6 µM⁻¹ s⁻¹"),
    ("CCCCC/C=C\\C=C\\[C@H](CCCCCCCC(=O)O)OO", "7.2 µM⁻¹ s⁻¹"),
    ("CCCCC[C@@H](/C=C/C=C\\CCCCCCCC(=O)O)OO", "33.5 µM⁻¹ s⁻¹"),
    ("CC/C=C\\C[C@@H](/C=C/C=C\\CCCCCCCC(=O)O)OO", "149.3 µM⁻¹ s⁻¹"),
]

----------
System: Medicago truncatula hydroperoxide lyase CYP74C3 (HPLF), recombinant, wild type, N-terminal histidine-tagged
test_parameters: +Detergent (purified in detergent-buffer), pH 6.5, 25° C.
readout_kind: kcat (s⁻¹)

# chemical_string, unit_label, readout_value
data = [
    ("CCCCC/C=C\\C=C\\[C@H](CCCCCCCC(=O)O)OO", "s⁻¹", 197),
    ("CC/C=C\\C[C@@H](/C=C/C=C\\CCCCCCCC(=O)O)OO", "s⁻¹", 514),
    ("CC/C=C\\C/C=C\\C=C\\[C@H](CCCCCCCC(=O)O)OO", "s⁻¹", 24),
    ("CCCCC[C@@H](/C=C/C=C\\CCCCCCCC(=O)O)OO", "s⁻¹", 361),
]

----------
Entries and their Km
System: Medicago truncatula hydroperoxide lyase CYP74C3 (HPLF), recombinant, wild type, N-terminal histidine-tagged
test_parameters: Reactivated with 5 mM Emulphogene, pH 6.5, 25° C.

# compound, unit_label, Km
records = [
    ("CCCCC/C=C\\C=C\\[C@H](CCCCCCCC(=O)O)OO [9α-HPOD]", "µM", 25.8),
    ("CC/C=C\\C[C@@H](/C=C/C=C\\CCCCCCCC(=O)O)OO [13α-HPOT]", "µM", 4.4),
    ("CC/C=C\\C/C=C\\C=C\\[C@H](CCCCCCCC(=O)O)OO [9α-HPOT]", "µM", 51.7),
    ("CCCCC[C@@H](/C=C/C=C\\CCCCCCCC(=O)O)OO [13α-HPOD]", "µM", 14.7),
]

----------
System: Medicago truncatula hydroperoxide lyase CYP74C3 (HPLF), recombinant, wild type, N-terminal histidine-tagged
test_parameters: Detergent-free, pH 6.5, 25° C.
readout_kind: Km (µM)

# molecule, readout_value
rows = [
    ("CCCCC/C=C\\C=C\\[C@H](CCCCCCCC(=O)O)OO [9α-HPOD]", 84.5),
    ("CC/C=C\\C[C@@H](/C=C/C=C\\CCCCCCCC(=O)O)OO [13α-HPOT]", 20.9),
    ("CC/C=C\\C/C=C\\C=C\\[C@H](CCCCCCCC(=O)O)OO [9α-HPOT]", 81.6),
    ("CCCCC[C@@H](/C=C/C=C\\CCCCCCCC(=O)O)OO [13α-HPOD]", 102),
]

----------
System: Medicago truncatula hydroperoxide lyase CYP74C3 (HPLF), recombinant, wild type, N-terminal histidine-tagged
test_parameters: Detergent-free
readout_kind: kcat/Km (M⁻¹ s⁻¹)

# chemical_string, readout_value
rows = [
    ("CC/C=C\\C[C@@H](/C=C/C=C\\CCCCCCCC(=O)O)OO", "3.2e+06"),
    ("CCCCC/C=C\\C=C\\[C@H](CCCCCCCC(=O)O)OO", 500000),
    ("CCCCC[C@@H](/C=C/C=C\\CCCCCCCC(=O)O)OO", 600000),
    ("CC/C=C\\C/C=C\\C=C\\[C@H](CCCCCCCC(=O)O)OO", 100000),
]
